Residues, ends and D or L forms follow the SMILES beside them. *: point of attachment. Cbz = O=C(OCc1ccccc1)*
parameter: melting point

Ask | // query melting point value for entry "COc1cccc(-c2[nH]cc(C3=C[C@@H]4C[C@@H](c5ccccc5)CN4CC3)c2-c2ccncc2)c1"
Reply | 141 to 144 °C

Ask | How about "NCCCCn1cnc2c(N)nc3cccnc3c21" ?
Reply | 161 to 163 °C

Ask | How about "Cc1cc(C)c2nn3c(SCc4ccccc4)nc(N)nc3c2n1" ?
Reply | 263 to 265 °C

Ask | How about "Cc1cc(CO)c2cccc(OCc3ccccc3)c2n1" ?
Reply | 137 to 141 °C

Ask | How about "N#Cc1ccc(-c2ncc(C(F)(F)F)cc2Cl)cc1O" ?
Reply | 155 to 157 °C

Ask | How about "[N-]=[N+]=NCc1n[nH]nc1-c1ccc(Cl)cc1C(=O)c1ccccc1" ?
Reply | 128 to 131 °C

Ask | How about O=C1COc2ccc(C3=Cc4ccccc4OC3c3ccccc3)cc2N1 (stereo not given) ?
Reply | 246 to 249 °C

Ask | How about "NNc1nc(Cl)nc2cc3c(cc12)OCO3" ?
Reply | > 280 °C

Ask | How about "CCOC(=O)COc1ccc2cc(Br)ccc2c1Cl" ?
Reply | 92 to 94 °C

Ask | How about N=C(N)NCCCC(NC(=O)C1CCCN1C(=O)C(CCCCNC(=O)OCc1ccccc1)NC(=O)CNC(=O)OCc1ccccc1)C(=O)O (stereo not given) (Cbz-GK(Cbz)PR-OH; configuration not given here) ?
Reply | 175 °C

Ask | How about "COC(=O)c1cc2ccc3[nH]ccc3c2[nH]1" ?
Reply | 183 to 184 °C

Ask | How about CCCOC(C)Cc1ccc(-c2ccc(O)cc2)cc1 (single isomer, unassigned; (-)) ?
Reply | 52 to 54 °C

Ask | How about "O=[N+]([O-])c1ccc(/C=C/c2ccc(O)cc2)cc1" ?
Reply | 210 °C

Ask | How about "CC(C)(C)c1nc2cc(N3CCCCC3)c(N)cc2s1" ?
Reply | 172 to 175 °C

Ask | How about "COc1ccc2c(ccn2Cc2ccccc2Br)n1" ?
Reply | 86 to 87 °C

Ask | How about "O=C(CBr)c1cc(-c2cccc(C(F)(F)F)c2)nc(C(F)(F)F)c1" ?
Reply | 87 to 89 °C

Ask | How about "CN(C)CCCCCCOc1ccc(C(=O)c2ccc(F)cc2)cc1" ?
Reply | 37 to 38 °C

Ask | How about "Cc1ccc(-c2ccc3c(c2)C=C(S(=O)(=O)Cl)CCO3)cc1" ?
Reply | 162 to 166 °C

Ask | How about "O=C(O)c1ccc2c(c1)S(=O)(=O)NCN2C1CC1" ?
Reply | 263 to 265 °C

Ask | How about "OCCOc1ccccc1-c1ccccc1" ?
Reply | 71 to 75 °C

====

Would you kindly list melting point for each of these molecules?

Ask | // query melting point value for entry "COc1ccccc1-c1c(NC(=O)OCc2ccccc2)oc(=O)c2ccccc12"
Reply | 144 to 146 °C

Ask | How about "CCOc1ccc(-c2nc(-c3cc(C=CC(=O)O)c(O)c(C(=O)O)c3)cs2)cc1OCC" ?
Reply | 260 to 261 °C

Ask | How about "O=C1c2ccccc2C(=O)c2oc(-c3cccc(F)c3)nc21" ?
Reply | 230 °C

Ask | How about "O=c1c2c(Cc3ccccc3)n[nH]c2c2cnccc2n1-c1ccccc1" ?
Reply | 284 to 287 °C
